Listed below: F1 (fraction of first exponential) values for each entry.
Target: double-labeled CYP3A4 C64/C121-DY/ER (Homo sapiens, UniProt P08684, A121C/C239S/C377S/C468A/C98S/S18F)
Sequence (P08684 with tags, fused parts or gaps S18F/C98S/A121C/C239S/C377S/C468A limits assumed): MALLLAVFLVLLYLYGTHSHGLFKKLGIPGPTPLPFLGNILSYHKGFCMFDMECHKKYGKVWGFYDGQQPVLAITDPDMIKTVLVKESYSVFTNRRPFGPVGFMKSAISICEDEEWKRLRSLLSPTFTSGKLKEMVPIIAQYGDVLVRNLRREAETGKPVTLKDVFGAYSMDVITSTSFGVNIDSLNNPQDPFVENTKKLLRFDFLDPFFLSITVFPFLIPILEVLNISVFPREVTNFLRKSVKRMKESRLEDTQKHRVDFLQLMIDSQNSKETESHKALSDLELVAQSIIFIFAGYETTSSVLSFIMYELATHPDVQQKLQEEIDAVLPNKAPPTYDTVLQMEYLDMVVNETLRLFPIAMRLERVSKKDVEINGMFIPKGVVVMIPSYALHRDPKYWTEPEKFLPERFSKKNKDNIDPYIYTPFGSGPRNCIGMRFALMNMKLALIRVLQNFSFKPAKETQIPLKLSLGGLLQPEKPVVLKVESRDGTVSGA
Assay: Time-resolved LRET (phosphorescence lifetime measurements)
Settings: Table S1; protein (C64/C121)-ER/DY; same ligand concentrations
Where a name gives a salt, the structure may show the parent alone.

>  <compound>
OCCCCc1ccc2ccc3cccc4ccc1c2c34

>  <F1 (fraction of first exponential)>
35 ± 1%

$$$$
>  <compound>
O=c1cc(-c2ccccc2)oc2c1ccc1ccccc12

>  <F1 (fraction of first exponential)>
43 ± 7%

$$$$
>  <compound>
CC(C)CCC[C@@H](C)[C@H]1CC[C@H]2[C@@H]3CC=C4C[C@@H](O)CC[C@]4(C)[C@H]3CC[C@]12C

>  <F1 (fraction of first exponential)>
44 ± 3%

$$$$
>  <compound>
CC(C)C[C@H]1C(=O)N2CCC[C@H]2[C@]2(O)O[C@](NC(=O)[C@@H]3C=C4c5cccc6[nH]c(Br)c(c56)C[C@H]4N(C)C3)(C(C)C)C(=O)N12 [Bromocriptine, Bromocriptine mesylate]

>  <F1 (fraction of first exponential)>
49 ± 5%

$$$$
>  <compound>
C[C@]12CC[C@H]3[C@@H](CCC4=CC(=O)CC[C@@]43C)[C@@H]1CC[C@@H]2O

>  <F1 (fraction of first exponential)>
38 ± 4%

$$$$

---

Listed below: τ1 (phosphorescence decay time with ligand) values for each entry.
Target: double-labeled CYP3A4 C377/C468-DY/ER (Homo sapiens, UniProt P08684, S18F, form not given)
Assay: Time-resolved LRET (phosphorescence lifetime measurements)
Settings: Table S1; protein (C377/C468)-ER/DY; 1-PB 40 µM, ANF 100 µM, BCT 2.5 µM, cholesterol 100 µM, testosterone 100 µM; bi-exponential fit
Where a name gives a salt, the structure may show the parent alone.
valueType: τ1 (phosphorescence decay time with ligand) (µs)

>  <molecule>
C[C@]12CC[C@H]3[C@@H](CCC4=CC(=O)CC[C@@]43C)[C@@H]1CC[C@@H]2O

>  <resultValue>
42

$$$$
>  <molecule>
OCCCCc1ccc2ccc3cccc4ccc1c2c34

>  <resultValue>
45

$$$$
>  <molecule>
CC(C)CCC[C@@H](C)[C@H]1CC[C@H]2[C@@H]3CC=C4C[C@@H](O)CC[C@]4(C)[C@H]3CC[C@]12C

>  <resultValue>
38

$$$$
>  <molecule>
O=c1cc(-c2ccccc2)oc2c1ccc1ccccc12

>  <resultValue>
42

$$$$
>  <molecule>
CC(C)C[C@H]1C(=O)N2CCC[C@H]2[C@]2(O)O[C@](NC(=O)[C@@H]3C=C4c5cccc6[nH]c(Br)c(c56)C[C@H]4N(C)C3)(C(C)C)C(=O)N12 [Bromocriptine, Bromocriptine mesylate]

>  <resultValue>
25

$$$$

---

Biological target: double-labeled CYP3A4 C377/C468-DY/ER (Homo sapiens, UniProt P08684, S18F, form not given)
Assay: Time-resolved LRET (phosphorescence lifetime measurements)
Settings: Table S1; protein (C377/C468)-ER/DY; same ligand concentrations
Structures can show the parent of a compound that is named as a salt.
valueType: τ2 (phosphorescence decay time with ligand) (µs)

>  <compound>
C[C@]12CC[C@H]3[C@@H](CCC4=CC(=O)CC[C@@]43C)[C@@H]1CC[C@@H]2O

>  <tgt>
double-labeled CYP3A4 C377/C468-DY/ER (Homo sapiens, UniProt P08684, S18F, form not given)

>  <uom>
µs

>  <resultValue>
193

$$$$
>  <compound>
OCCCCc1ccc2ccc3cccc4ccc1c2c34

>  <tgt>
double-labeled CYP3A4 C377/C468-DY/ER (Homo sapiens, UniProt P08684, S18F, form not given)

>  <uom>
µs

>  <resultValue>
149

$$$$
>  <compound>
CC(C)C[C@H]1C(=O)N2CCC[C@H]2[C@]2(O)O[C@](NC(=O)[C@@H]3C=C4c5cccc6[nH]c(Br)c(c56)C[C@H]4N(C)C3)(C(C)C)C(=O)N12 [Bromocriptine, Bromocriptine mesylate]

>  <tgt>
double-labeled CYP3A4 C377/C468-DY/ER (Homo sapiens, UniProt P08684, S18F, form not given)

>  <uom>
µs

>  <resultValue>
129

$$$$
>  <compound>
CC(C)CCC[C@@H](C)[C@H]1CC[C@H]2[C@@H]3CC=C4C[C@@H](O)CC[C@]4(C)[C@H]3CC[C@]12C

>  <tgt>
double-labeled CYP3A4 C377/C468-DY/ER (Homo sapiens, UniProt P08684, S18F, form not given)

>  <uom>
µs

>  <resultValue>
163

$$$$
>  <compound>
O=c1cc(-c2ccccc2)oc2c1ccc1ccccc12

>  <tgt>
double-labeled CYP3A4 C377/C468-DY/ER (Homo sapiens, UniProt P08684, S18F, form not given)

>  <uom>
µs

>  <resultValue>
188

$$$$

---

Listed below: pKd values for each entry.
Molecular target: CYP3A4(C64/C121) mutant (Homo sapiens, UniProt P08684, A121C/C239S/C377S/C468A/C98S/S18F)
Sequence (P08684 with tags, fused parts or gaps S18F/C98S/A121C/C239S/C377S/C468A limits assumed): as above
Experiment: Ligand-induced spin shift, absorbance titration
pKd: −log10 of the molar value.
valueType: pKd

>  <inputSmiles>
O=c1cc(-c2ccccc2)oc2c1ccc1ccccc12

>  <valueType>
pKd

>  <resultValue>
5.07

$$$$
>  <inputSmiles>
OCCCCc1ccc2ccc3cccc4ccc1c2c34

>  <valueType>
pKd

>  <resultValue>
4.80

$$$$

---

Target: double-labeled CYP3A4 (C64/C468)-ER/DY (Homo sapiens, UniProt P08684, S18F, form not given)
Assay: Time-resolved LRET (phosphorescence lifetime measurements)
Details: Table S1; (C64/C468)-ER/DY; same ligand concentrations
Source text: The excitation wavelength was set to 540 nm.
Counter-ions that a name gives are not always drawn.
Listed below: F1 (fraction of first exponential) values for each entry.
valueType: F1 (fraction of first exponential) (%)

>  <compound>
OCCCCc1ccc2ccc3cccc4ccc1c2c34 [1-PB, 1-pyrenebutanol]

>  <resultValue>
60

$$$$
>  <compound>
O=c1cc(-c2ccccc2)oc2c1ccc1ccccc12 [ANF, α-naphthoflavone]

>  <resultValue>
34

$$$$
>  <compound>
CC(C)C[C@H]1C(=O)N2CCC[C@H]2[C@]2(O)O[C@](NC(=O)[C@@H]3C=C4c5cccc6[nH]c(Br)c(c56)C[C@H]4N(C)C3)(C(C)C)C(=O)N12 [Bromocriptine, Bromocriptine mesylate]

>  <resultValue>
28

$$$$
>  <compound>
C[C@]12CC[C@H]3[C@@H](CCC4=CC(=O)CC[C@@]43C)[C@@H]1CC[C@@H]2O [Testosterone, testosterone]

>  <resultValue>
48

$$$$
>  <compound>
CC(C)CCC[C@@H](C)[C@H]1CC[C@H]2[C@@H]3CC=C4C[C@@H](O)CC[C@]4(C)[C@H]3CC[C@]12C [Cholesterol, cholesterol]

>  <resultValue>
53

$$$$

---

Molecular target: double-labeled CYP3A4 C64/C121-DY/ER (Homo sapiens, UniProt P08684, A121C/C239S/C377S/C468A/C98S/S18F)
Experiment: Time-resolved LRET (phosphorescence lifetime measurements)
Details: Table S2; protein C64/C121-ER/DY; same ligand concentrations
Where a name gives a salt, the structure may show the parent alone.
valueType: ΔR, lifetime measurements (Å)

>  <compound>
CC(C)CCC[C@@H](C)[C@H]1CC[C@H]2[C@@H]3CC=C4C[C@@H](O)CC[C@]4(C)[C@H]3CC[C@]12C [Cholesterol, cholesterol]

>  <resultValue>
0.8

$$$$
>  <compound>
O=c1cc(-c2ccccc2)oc2c1ccc1ccccc12 [ANF, α-naphthoflavone]

>  <resultValue>
1.3

$$$$
>  <compound>
C[C@]12CC[C@H]3[C@@H](CCC4=CC(=O)CC[C@@]43C)[C@@H]1CC[C@@H]2O [Testosterone, testosterone]

>  <resultValue>
1.9

$$$$
>  <compound>
OCCCCc1ccc2ccc3cccc4ccc1c2c34 [1-PB, 1-pyrenebutanol]

>  <resultValue>
0.4

$$$$
>  <compound>
CC(C)C[C@H]1C(=O)N2CCC[C@H]2[C@]2(O)O[C@](NC(=O)[C@@H]3C=C4c5cccc6[nH]c(Br)c(c56)C[C@H]4N(C)C3)(C(C)C)C(=O)N12 [Bromocriptine, Bromocriptine mesylate]

>  <resultValue>
1.3

$$$$

---

Target: double-labeled CYP3A4 (C64/C468)-DY/ER (Homo sapiens, UniProt P08684, S18F, form not given)
Sequence (P08684 13-503 S18F, form open): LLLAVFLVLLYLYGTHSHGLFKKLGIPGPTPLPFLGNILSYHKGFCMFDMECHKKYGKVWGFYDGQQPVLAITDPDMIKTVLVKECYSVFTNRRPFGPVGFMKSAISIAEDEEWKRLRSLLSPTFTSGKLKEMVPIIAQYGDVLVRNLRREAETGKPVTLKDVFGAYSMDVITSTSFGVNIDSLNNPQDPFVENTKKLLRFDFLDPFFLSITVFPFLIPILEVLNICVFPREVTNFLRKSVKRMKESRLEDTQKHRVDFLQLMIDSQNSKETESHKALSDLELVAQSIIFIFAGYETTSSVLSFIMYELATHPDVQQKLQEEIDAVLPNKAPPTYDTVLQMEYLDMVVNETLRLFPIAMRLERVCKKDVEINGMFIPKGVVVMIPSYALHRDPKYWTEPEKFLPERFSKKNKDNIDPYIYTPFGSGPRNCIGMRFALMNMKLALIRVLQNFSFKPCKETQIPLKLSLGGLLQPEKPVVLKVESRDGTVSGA
Test: Steady-state LRET titration (delayed emission)
Type: binding
Conditions: (C64/C468)-DY/ER
Counter-ions that a name gives are not always drawn.
Consider the cut-off 4 Å. If the recorded ΔR (change in interprobe distance), steady-state fluorescence is strictly smaller, the label is Yes; if not, the label is No.

>  <compound>
CC(C)C[C@H]1C(=O)N2CCC[C@H]2[C@]2(O)O[C@](NC(=O)[C@@H]3C=C4c5cccc6[nH]c(Br)c(c56)C[C@H]4N(C)C3)(C(C)C)C(=O)N12 [Bromocriptine, Bromocriptine mesylate]

>  <assignedCategory>
Yes

$$$$
>  <compound>
CC(C)CCC[C@@H](C)[C@H]1CC[C@H]2[C@@H]3CC=C4C[C@@H](O)CC[C@]4(C)[C@H]3CC[C@]12C [Cholesterol, cholesterol]

>  <assignedCategory>
No

$$$$
>  <compound>
OCCCCc1ccc2ccc3cccc4ccc1c2c34 [1-PB, 1-pyrenebutanol]

>  <assignedCategory>
Yes

$$$$
>  <compound>
C[C@]12CC[C@H]3[C@@H](CCC4=CC(=O)CC[C@@]43C)[C@@H]1CC[C@@H]2O [Testosterone, testosterone]

>  <assignedCategory>
No

$$$$
